B1: Ankyrin repeat and SOCS box protein 14, residues 532 to 572; numbered along this chain, A6NK59 (parent)
chain: RSLKHLCRLKIRKCMGRLHLRCPVFMSFLPLPNRLKAYVLY

variants of: B1; assay: abundance fitness (aPCA) (normalised: wild type 0, dead -1); higher = more abundant; growth selection in yeast, the domain comes from the species named; conditions: Homo sapiens
property-measured: abundance fitness
# output: bare number, no unit

M26Q = -0.154
G16W = -0.058
G16F = -0.152
F28Y = -0.01
K36S = -0.662

What value of abundance fitness has been reported for the following variant? C14E
-0.024

Param item: F25K
0.089

Param item: F28H
0.199

Param item: Y41G
0.368

Param item: C22V
0.064

Param item: L9D
0.13

Param item: Y41M
0.257

Param item: L18E
-0.748

Param item: L9S
0.012

Param item: L31M
-0.301

Param item: R34A
-0.255

Data provenance: the Human Domainome abundance scans (Beltran et al. 2025)
